Sourced from patent EP0908457B1

System: Oryza sativa, (L.) Tebonnet
Assay: Rice tolerance to post-transplant applications under flooded paddy conditions (Example 188), ORYSAT (Rice, Tebonnet)
Conditions: Rate 0.0620 kg/ha, rated three to four weeks after treatment
parameter: herbicidal effect rating, ORYSAT (rice tolerance)
// return a plain number; no unit text

## Task Need herbicidal effect rating, ORYSAT (rice tolerance) of COc1cc2c(cc1-c1nsc3ccc(-n4c(=O)cc(C(F)(F)F)n(C)c4=O)cc13)CCC2 , thanks.
## Result 7.0

## Task Need herbicidal effect rating, ORYSAT (rice tolerance) of COc1cc(C)c(I)cc1-c1nsc2ccc(-n3c(=O)cc(C(F)(F)F)n(C)c3=O)cc12 , thanks.
## Result 1.0

## Task Need herbicidal effect rating, ORYSAT (rice tolerance) of COCc1nsc2cc(F)c(-n3c(=O)cc(C(F)(F)F)n(C)c3=O)cc12 , thanks.
## Result 8.0

## Task Need herbicidal effect rating, ORYSAT (rice tolerance) of CON(C)C(=O)COc1ccccc1-c1nsc2ccc(-n3c(=O)cc(C(F)(F)F)n(C)c3=O)cc12 , thanks.
## Result 6.0

###

Test system: Oryza sativa, (L.) Tebonnet
Experiment: Rice tolerance to post-transplant applications under flooded paddy conditions (Example 187), ORYSAT (Rice, Tebonnet)
Conditions: 0.0320 kg/ha, rated three to four weeks after treatment
Classify: 1 when ORYSAT herbicidal rating (rice tolerance) is strictly less than 5; 0 when ORYSAT herbicidal rating (rice tolerance) is not.

## Task Please indicate whether the reported ORYSAT herbicidal rating (rice tolerance) of CC(C)NS(=O)(=O)NC(=O)c1nsc2ccc(-n3c(=O)cc(C(F)(F)F)n(C)c3=O)cc12 [Example 508] is strictly below 5.
## Result 1

## Task Please indicate whether the reported ORYSAT herbicidal rating (rice tolerance) of Cn1c(C(F)(F)F)cc(=O)n(-c2ccc3snc(C(C)(C)C(=O)OCc4ccccn4)c3c2)c1=O [Example 510] is strictly below 5.
## Result 1

## Task Please indicate whether the reported ORYSAT herbicidal rating (rice tolerance) of COC(=O)C(C)Oc1cc(Cl)c(C)cc1-c1nsc2ccc(-n3c(=O)cc(C(F)(F)F)n(C)c3=O)cc12 (stereo not drawn) [Example 492] is strictly below 5.
## Result 1

## Task Please indicate whether the reported ORYSAT herbicidal rating (rice tolerance) of COC(=O)COc1ccc(I)cc1-c1nsc2ccc(-n3c(=O)cc(C(F)(F)F)n(C)c3=O)cc12 [Example 459] is strictly below 5.
## Result 1

## Task Please indicate whether the reported ORYSAT herbicidal rating (rice tolerance) of COCOCc1nsc2ccc(-n3c(=O)cc(C(F)(F)F)n(C)c3=O)cc12 [Example 478] is strictly below 5.
## Result 0

## Task Please indicate whether the reported ORYSAT herbicidal rating (rice tolerance) of Cc1ccccc1CS(=O)(=O)NC(=O)c1nsc2ccc(-n3c(=O)cc(C(F)(F)F)n(C)c3=O)cc12 [Example 465] is strictly below 5.
## Result 1

## Task Please indicate whether the reported ORYSAT herbicidal rating (rice tolerance) of Cn1c(C(F)(F)F)cc(=O)n(-c2ccc3snc(C(=O)NS(=O)(=O)Cc4cccc(Cl)c4)c3c2)c1=O [Example 486] is strictly below 5.
## Result 1

## Task Please indicate whether the reported ORYSAT herbicidal rating (rice tolerance) of CN(C(=O)c1nsc2ccc(-n3c(=O)cc(C(F)(F)F)n(C)c3=O)cc12)S(=O)(=O)Cc1ccccc1 [Example 494] is strictly below 5.
## Result 1

## Task Please indicate whether the reported ORYSAT herbicidal rating (rice tolerance) of CC(C)N(C(C)C)S(=O)(=O)NC(=O)COc1ccccc1-c1nsc2ccc(-n3c(=O)cc(C(F)(F)F)n(C)c3=O)cc12 [Example 512] is strictly below 5.
## Result 1

## Task Please indicate whether the reported ORYSAT herbicidal rating (rice tolerance) of CC(C)c1nsc2ccc(-n3c(=O)cc(C(F)(F)F)n(C)c3=O)cc12 [Example 499] is strictly below 5.
## Result 0

## Task Please indicate whether the reported ORYSAT herbicidal rating (rice tolerance) of Cc1cccc(CS(=O)(=O)NC(=O)c2nsc3ccc(-n4c(=O)cc(C(F)(F)F)n(C)c4=O)cc23)c1 [Example 483] is strictly below 5.
## Result 1

## Task Please indicate whether the reported ORYSAT herbicidal rating (rice tolerance) of Cn1c(C(F)(F)F)cc(=O)n(-c2ccc3snc(C(=O)NS(=O)(=O)CCc4ccccc4)c3c2)c1=O [Example 485] is strictly below 5.
## Result 1
